Recorded Log (ε), one value per entry.
- assayRemarks: UV/VIS-near-IR absorption of the dyes
- Format: physicochemical
- statedConditions: Table 2, Example 2 dyes
Keep it simple and answer with nothing but the number.

Solved entries (count: 4):
INSERT INTO results (molsmiles, recordedvalue) VALUES
  ('C(=Cc1cc(-c2ccccc2)[se+]c(-c2ccccc2)c1)C=C1C=C(c2ccccc2)SC(c2ccccc2)=C1.F[P-](F)(F)(F)(F)F', 5.30),
  ('C(=Cc1cc(-c2ccccc2)[se+]c(-c2ccccc2)c1)C=C1C=C(c2ccccc2)[Se]C(c2ccccc2)=C1.F[P-](F)(F)(F)(F)F', 5.40),
  ('C(=Cc1cc(-c2cccs2)[s+]c(-c2cccs2)c1)C=C1C=C(c2cccs2)SC(c2cccs2)=C1.F[P-](F)(F)(F)(F)F', 5.45),
  ('C(=Cc1cc(-c2ccccc2)[se+]c(-c2ccccc2)c1)C=C1C=C(c2cccs2)SC(c2cccs2)=C1.F[P-](F)(F)(F)(F)F', 5.40);

Okay, next one:
Prompt: Recorded Log (ε) for C(=Cc1cc(-c2ccccc2)[s+]c(-c2ccccc2)c1)C=C1C=C(c2cccs2)SC(c2cccs2)=C1.F[P-](F)(F)(F)(F)F , please?
Response: 5.34

====

- assayRemarks: UV/VIS-near-IR absorption of the dyes
- Format: physicochemical
- statedConditions: absorption maximum in CH2Cl2
experimentalEndpoint: λmax (CH2Cl2) (nm)
Your answer is read as nm, so omit the unit and give the number.

Solved entries (count: 3):
INSERT INTO results (molsmiles, unitslabel, recordedvalue) VALUES
  ('C1=C(/C=C/C=C2\C=C(c3ccccc3)[Se]c3ccccc32)C=C(c2ccccc2)[SH]=C1c1ccccc1', 'nm', 748),
  ('C(=Cc1cc(-c2ccccc2)[se+]c(-c2ccccc2)c1)C=C1C=C(c2ccccc2)[Se]C(c2ccccc2)=C1.F[P-](F)(F)(F)(F)F', 'nm', 806),
  ('C(=C1C=C(c2cccs2)SC(c2cccs2)=C1)c1cc(-c2cccs2)[se+]c(-c2cccs2)c1.F[P-](F)(F)(F)(F)F', 'nm', 698);

Prompt: Recorded λmax (CH2Cl2) for C(=Cc1cc(-c2ccccc2)[se+]c(-c2ccccc2)c1)C=C1C=C(c2cccs2)SC(c2cccs2)=C1.F[P-](F)(F)(F)(F)F , please?
Response: 810

Prompt: Recorded λmax (CH2Cl2) for C(=C1C=C(c2ccccc2)[Se]C(c2ccccc2)=C1)c1cc(-c2cccs2)[s+]c(-c2cccs2)c1.F[P-](F)(F)(F)(F)F , please?
Response: 676

Prompt: Recorded λmax (CH2Cl2) for C(=Cc1cc(-c2ccc[se]2)[s+]c(-c2ccc[se]2)c1)C=C1C=C(c2ccc[se]2)SC(c2ccc[se]2)=C1.F[P-](F)(F)(F)(F)F , please?
Response: 826

Prompt: Recorded λmax (CH2Cl2) for C(/C=C/C=C/c1cc(-c2ccc[se]2)[se+]c(-c2ccc[se]2)c1)=C1C=C(c2ccc[se]2)[Se]C(c2ccc[se]2)=C1 , please?
Response: 1001

====

- assayRemarks: UV/VIS-near-IR absorption of the dyes
- Type: physicochemical
- statedConditions: Table 2, Example 2 dyes, CH2Cl2
Recorded λmax (CH2Cl2), one value per entry.
Your answer is read as nm, so omit the unit and give the number.

Solved entries (count: 4):
INSERT INTO measurements (molsmiles, experimentalendpoint, unitslabel, recordedvalue) VALUES
  ('C(=Cc1cc(-c2cccs2)[s+]c(-c2cccs2)c1)C=C1C=C(c2cccs2)SC(c2cccs2)=C1.F[P-](F)(F)(F)(F)F', 'λmax (CH2Cl2)', 'nm', 813),
  ('C(=Cc1cc(-c2ccccc2)[se+]c(-c2ccccc2)c1)C=C1C=C(c2ccccc2)SC(c2ccccc2)=C1.F[P-](F)(F)(F)(F)F', 'λmax (CH2Cl2)', 'nm', 784),
  ('C(=Cc1cc(-c2ccccc2)[se+]c(-c2ccccc2)c1)C=C1C=C(c2cccs2)SC(c2cccs2)=C1.F[P-](F)(F)(F)(F)F', 'λmax (CH2Cl2)', 'nm', 810),
  ('C(=Cc1cc(-c2ccccc2)[se+]c(-c2ccccc2)c1)C=C1C=C(c2ccccc2)[Se]C(c2ccccc2)=C1.F[P-](F)(F)(F)(F)F', 'λmax (CH2Cl2)', 'nm', 806);

Okay, next one:
Prompt: Recorded λmax (CH2Cl2) for C(=Cc1cc(-c2ccccc2)[s+]c(-c2ccccc2)c1)C=C1C=C(c2cccs2)SC(c2cccs2)=C1.F[P-](F)(F)(F)(F)F , please?
Response: 789

====

- assayRemarks: UV/VIS-near-IR absorption of the dyes
- Type: physicochemical
- statedConditions: molar extinction coefficient in CH2Cl2
Recorded ε (CH2Cl2), one value per entry.
Your answer is read as M⁻¹ cm⁻¹, so omit the unit and give the number.

INSERT INTO measurements (compound, experimentalendpoint, recordedvalue) VALUES
  ('C(=C1C=C(c2ccccc2)SC(c2ccccc2)=C1)c1cc(-c2ccc[se]2)[s+]c(-c2ccc[se]2)c1.F[P-](F)(F)(F)(F)F [Dye 7]', 'ε (CH2Cl2)', 140000),
  ('C(=Cc1cc(-c2ccccc2)[s+]c(-c2ccccc2)c1)C=C1C=C(c2cccs2)SC(c2cccs2)=C1.F[P-](F)(F)(F)(F)F [Dye 12]', 'ε (CH2Cl2)', 220000),
  ('C(=Cc1cc(-c2ccc[se]2)[s+]c(-c2ccc[se]2)c1)C=C1C=C(c2ccc[se]2)SC(c2ccc[se]2)=C1.F[P-](F)(F)(F)(F)F [Dye 14]', 'ε (CH2Cl2)', 230000),
  ('C1=C(c2ccccc2)Sc2ccccc2/C1=C/C=C/C1=CC(c2ccccc2)=[SH]c2ccccc21 [Dye 15]', 'ε (CH2Cl2)', 150000);

Prompt: Recorded ε (CH2Cl2) for C(=Cc1cc(-c2cccs2)[s+]c(-c2cccs2)c1)C=C1C=C(c2cccs2)SC(c2cccs2)=C1.F[P-](F)(F)(F)(F)F [Dye 13] , please?
Response: 280000

====

- assayRemarks: UV/VIS-near-IR absorption of the dyes
- Assay type: physicochemical
- statedConditions: molar extinction coefficient in CH2Cl2
Decision: ε (CH2Cl2) >= 100000 M⁻¹ cm⁻¹ yields Condition met, all other cases yield Condition not met.

INSERT INTO measurements (molsmiles, answerlabel) VALUES
  ('C(=C1C=C(c2cccs2)SC(c2cccs2)=C1)c1cc(-c2cccs2)[se+]c(-c2cccs2)c1.F[P-](F)(F)(F)(F)F', 'Condition met');

Prompt: Check the entry C(=C1C=C(c2ccc[se]2)SC(c2ccc[se]2)=C1)c1cc(-c2ccc[se]2)[s+]c(-c2ccc[se]2)c1.F[P-](F)(F)(F)(F)F : does ε (CH2Cl2) equal or exceed 100000 M⁻¹ cm⁻¹?
Response: Condition met

Prompt: Check the entry C(=C1C=C(c2ccccc2)SC(c2ccccc2)=C1)c1cc(-c2cccs2)[s+]c(-c2cccs2)c1.F[P-](F)(F)(F)(F)F : does ε (CH2Cl2) equal or exceed 100000 M⁻¹ cm⁻¹?
Response: Condition met

Prompt: Check the entry C(=C1C=C(c2cccs2)SC(c2cccs2)=C1)c1cc(-c2cccs2)[s+]c(-c2cccs2)c1.F[P-](F)(F)(F)(F)F : does ε (CH2Cl2) equal or exceed 100000 M⁻¹ cm⁻¹?
Response: Condition met

Prompt: Check the entry C1=C(/C=C/C=C2\C=C(c3ccccc3)[Se]c3ccccc32)C=C(c2ccccc2)[SH]=C1c1ccccc1 : does ε (CH2Cl2) equal or exceed 100000 M⁻¹ cm⁻¹?
Response: Condition not met

Prompt: Check the entry C(=Cc1cc(-c2ccccc2)[se+]c(-c2ccccc2)c1)C=C1C=C(c2ccccc2)[Se]C(c2ccccc2)=C1.F[P-](F)(F)(F)(F)F : does ε (CH2Cl2) equal or exceed 100000 M⁻¹ cm⁻¹?
Response: Condition met

====

- assayRemarks: UV/VIS-near-IR absorption of the dyes
- Format: physicochemical
- statedConditions: absorption maximum in CH2Cl2
experimentalEndpoint: λmax (CH2Cl2) (nm)
Your answer is read as nm, so omit the unit and give the number.

INSERT INTO measurements (compound, experimentalendpoint, recordedvalue) VALUES
  ('C(=Cc1cc(-c2ccccc2)[se+]c(-c2ccccc2)c1)C=C1C=C(c2ccccc2)SC(c2ccccc2)=C1.F[P-](F)(F)(F)(F)F [Dye 10]', 'λmax (CH2Cl2)', 784),
  ('C(=C1C=C(c2ccccc2)[Se]C(c2ccccc2)=C1)c1cc(-c2cccs2)[se+]c(-c2cccs2)c1.F[P-](F)(F)(F)(F)F [Dye 3]', 'λmax (CH2Cl2)', 699),
  ('C(=C1C=C(c2ccc[se]2)SC(c2ccc[se]2)=C1)c1cc(-c2ccc[se]2)[s+]c(-c2ccc[se]2)c1.F[P-](F)(F)(F)(F)F [Dye 8]', 'λmax (CH2Cl2)', 687),
  ('C(/C=C/C=C/c1cc(-c2cccs2)[s+]c(-c2cccs2)c1)=C1C=C(c2cccs2)SC(c2cccs2)=C1 [Dye 18]', 'λmax (CH2Cl2)', 943),
  ('ClC1=C(/C=C/c2cc(-c3cccs3)[s+]c(-c3cccs3)c2)CCC/C1=C\C=C1C=C(c2cccs2)SC(c2cccs2)=C1 [Dye 21]', 'λmax (CH2Cl2)', 1119),
  ('C(=C1C=C(c2cccs2)SC(c2cccs2)=C1)c1cc(-c2cccs2)[s+]c(-c2cccs2)c1.F[P-](F)(F)(F)(F)F [Dye 4]', 'λmax (CH2Cl2)', 676),
  ('ClC1=C(/C=C/c2cc(-c3ccccc3)[s+]c(-c3ccccc3)c2)CCC/C1=C\C=C1C=C(c2ccccc2)SC(c2ccccc2)=C1 [Dye 20]', 'λmax (CH2Cl2)', 1042),
  ('C1=C(c2cccs2)[Se]c2ccccc2/C1=C/C1=CC(c2cccs2)=[SeH]c2ccccc21 [Dye 17]', 'λmax (CH2Cl2)', 786);

Prompt: Recorded λmax (CH2Cl2) for C(=Cc1cc(-c2ccccc2)[s+]c(-c2ccccc2)c1)C=C1C=C(c2cccs2)SC(c2cccs2)=C1.F[P-](F)(F)(F)(F)F [Dye 12] , please?
Response: 789

Prompt: Recorded λmax (CH2Cl2) for C(=C1C=C(c2ccccc2)SC(c2ccccc2)=C1)c1cc(-c2ccc[se]2)[s+]c(-c2ccc[se]2)c1.F[P-](F)(F)(F)(F)F [Dye 7] , please?
Response: 659

Prompt: Recorded λmax (CH2Cl2) for C(=C1C=C(c2ccccc2)SC(c2ccccc2)=C1)c1cc(-c2cccs2)[s+]c(-c2cccs2)c1.F[P-](F)(F)(F)(F)F [Dye 1] , please?
Response: 653

Prompt: Recorded λmax (CH2Cl2) for C(=Cc1cc(-c2cccs2)[s+]c(-c2cccs2)c1)C=C1C=C(c2cccs2)SC(c2cccs2)=C1.F[P-](F)(F)(F)(F)F [Dye 13] , please?
Response: 813

Prompt: Recorded λmax (CH2Cl2) for C(=C1C=C(c2cccs2)[Se]C(c2cccs2)=C1)c1cc(-c2cccs2)[se+]c(-c2cccs2)c1.F[P-](F)(F)(F)(F)F [Dye 6] , please?
Response: 724

Prompt: Recorded λmax (CH2Cl2) for C1=C(c2ccccc2)Sc2ccccc2/C1=C/C=C/C1=CC(c2ccccc2)=[SH]c2ccccc21 [Dye 15] , please?
Response: 789
